measurement-setup: buffer; pH 7.4; 200.0 µM
experimental-readout: solubility kinetic (µg/mL)
The response must be a number in µg/mL with no trailing unit.

chemical-smiles | meas-value
Oc1ccccc1C=Nc1cccc2ccccc12 | 9.4
CCCOc1ccc(CCCN=C(N)N)cc1Cl.O=S(=O)(O)O | 42.2
O=[N+]([O-])c1ccc(Cl)c([N+](=O)[O-])c1 | 13.8

# get_value(readout='solubility kinetic', item= COCCn1c(N)c(Sc2ccccc2)c(=O)[nH]c1=O ) 41.4

Here is the next compound: C[n+]1cn(Cc2ccc(C#N)cc2)c2ccccc21.[Cl-] 39.4

---

measurement-setup: buffer; pH 7.4; 200.0 µM
experimental-readout: solubility kinetic (µg/mL)
The response must be a number in µg/mL with no trailing unit.

See these solved cases before continuing.
compound | solubility kinetic, µg/mL
O=C(Nc1ccc(N2CCCC2)cc1)c1ccc(Br)cc1 | 1.4
O=C(NCc1ccccc1)c1nc[nH]c1C(=O)NCc1ccccc1 | 1.1

Pending compound:
# get_value(readout='solubility kinetic', item= Cc1ccc(-c2nc(C#N)c(NCC3CCCO3)o2)cc1 (stereo unspecified) ) 37

---

measurement-setup: buffer; pH 7.4; 200.0 µM
experimental-readout: solubility kinetic (µg/mL)
The response must be a number in µg/mL with no trailing unit.

See these solved cases before continuing.
compound | solubility kinetic, µg/mL
CCOC(=O)C1=C(C)N=C2SCCC(=O)N2[C@@H]1c1cccs1 | 39.1
Cc1sc2c3ccsc3ccc2[n+]1C.[I-] | 36.3
COc1ccc2oc(C(=O)OC(C)C(=O)N3C(C)CCCC3C)c(C)c2c1 (stereo not given) | 8.4
CC(C)c1cccc(OCCN2CCCC2)c1 | 22.9
CC1Oc2ccccc2N(Cc2ccc(F)cc2)C1=O (stereo not given) | 23.4
Cc1ccc(N2CCN(C(=O)NC3CCCCC3)CC2)c(C)c1 | 1.6
NC(=O)COC(=O)/C=C/c1ccccc1[N+](=O)[O-] | 33.1
Cn1c(Cl)cnc1C(O)(c1ccccc1)c1ccccc1 | 10.2
Cc1cc(C)cc(NC(=O)c2ccc3c(c2)CCN3S(C)(=O)=O)c1 | 0.5

Pending compound:
# get_value(readout='solubility kinetic', item= Cc1c(C)c(C)c(S(=O)(=O)NCCc2ccncc2)c(C)c1C ) 2

---

measurement-setup: buffer; pH 7.4; 200.0 µM
solubility kinetic for assorted compounds
The response must be a number in µg/mL with no trailing unit.

chemical-smiles | units-of-measure | solubility kinetic
CCOC(=O)c1cc(NC(=O)c2cccs2)ccc1N1CCOCC1 | µg/mL | 14.8
CN(C(=O)c1ccc(COc2ccccc2Cl)o1)c1ccccc1 | µg/mL | 8.8
O=C1CCN2C=Nc3cccc4ccc1c2c34 | µg/mL | 33.2
O=C(/C=C\c1ccccc1)Oc1cccc2cccnc12 | µg/mL | 17.3

Pending compound:
# get_value(readout='solubility kinetic', item= CCN1CCN(C(=O)/C=C/c2cccc(Cl)c2)CC1 ) 40

---

measurement-setup: buffer; pH 7.4; 200.0 µM
experimental-readout: log10 solubility kinetic (log10 of the value in µg/mL)
Please interpret these as log10 of solubility kinetic where solubility kinetic is in µg/mL.

compound | experimental-readout | meas-value
CCCCOc1ccc(C(=O)OCC(=O)N2CCOCC2)cc1 | log10 solubility kinetic | 1.48

# get_value(readout='log10 solubility kinetic', item= O=C(NC(=S)Nc1ccc2nc[nH]c2c1)c1ccccc1 ) 1.54

Here is the next compound: Cc1cc(Cl)ccc1C(=O)C1CCCN(C(=O)c2ccoc2)C1 (stereo unspecified) 1.55

Here is the next compound: O=C(NCCN1CCCCC1)Nc1ccc(F)cc1 1.57

Here is the next compound: CC(=O)Oc1ccc(-c2ccc(C(=O)OCC(=O)c3c(N)n(C)c(=O)n(C)c3=O)cc2)cc1 0.51

---

measurement-setup: buffer; pH 7.4; 200.0 µM
experimental-readout: solubility kinetic (µg/mL)
The response must be a number in µg/mL with no trailing unit.

compound | units-of-measure | meas-value
Cc1ccc(OCc2nc(-c3ccccc3)no2)cc1 | µg/mL | 0.4

# get_value(readout='solubility kinetic', item= O=C1Nc2ccccc2/C1=C/c1ccccc1Cl ) 3.2

Here is the next compound: Cc1cc(Br)cc(C=Nc2ccc(N3CCOCC3)cc2)c1O 6.1

Here is the next compound: Cc1ccc([N+](=O)[O-])cc1NC(=O)C(C)N1CCCCC1 (configuration not stated) 40.4

Here is the next compound: Cc1cc(OCC(=O)NC2CC2)c2c(C)c(C)c(=O)oc2c1 2.5

Here is the next compound: CC(C)CC(=O)N1CCN(Cc2cccc([N+](=O)[O-])c2)CC1 33.2

Here is the next compound: CN1CCCN(C(=O)CSc2ccccc2)CC1 39.3

Here is the next compound: O=S(=O)(Cc1ccccc1)N(O)c1ccccc1 7

Here is the next compound: O=C(c1cccc2ccccc12)N1CCCCC1 34.9

---

measurement-setup: buffer; pH 7.4; 200.0 µM
solubility kinetic for assorted compounds
The response must be a number in µg/mL with no trailing unit.

See these solved cases before continuing.
compound | units-of-measure | solubility kinetic
NC(=O)c1cc(NC(=O)COC(=O)CCCN2C(=O)c3cccc4cccc(c34)C2=O)cc(C(N)=O)c1 | µg/mL | 4.9
COc1cc(OC)c(NC(=S)NCc2ccc(F)cc2)cc1Cl | µg/mL | 1
COc1ccc2c(c1)C(=O)N(Cc1ccccc1)C(=O)C2(C)C | µg/mL | 10.5
CCc1ccc(CCOc2ccc(CC3SC(=O)NC3=O)cc2)nc1.Cl (stereo not given) | µg/mL | 1.8
CCOc1ncccc1C(=O)Nc1cc(S(=O)(=O)N2CCOCC2)ccc1OCC(F)(F)F | µg/mL | 0.5
NS(=O)(=O)c1cc([N+](=O)[O-])ccc1NCc1cccnc1 | µg/mL | 44.8
CC1=C(C)C(=O)N(C(C)CCc2ccccc2)C1=O (stereo not given) | µg/mL | 4.4
Cc1ccc(C(=O)Oc2ccccc2N2CCOCC2)cc1 | µg/mL | 4.9

# get_value(readout='solubility kinetic', item= N#CC(c1ccccc1)N1CCOCC1 (stereo not given) ) 20.7

Here is the next compound: CN(Cc1ccccc1)C(=O)COC(=O)Cc1ccc(Cl)cc1 46.3

Here is the next compound: CC(C)CNC(=S)N1CCC(Cc2ccccc2)CC1 9.3

Here is the next compound: COc1ccc(CCCc2nc3ccccc3[nH]2)cc1 37.4

Here is the next compound: O=C(O)C1CCN(S(=O)(=O)Cc2ccccc2)CC1 33.3

Here is the next compound: CC(C)(C)Nc1nc(-c2ccc3c(c2)CCN3C(=O)C2CC2)cs1 5.4

Here is the next compound: Cc1ccc2oc(=O)n(Cc3ccccc3)c2c1 2.9

---

measurement-setup: buffer; pH 7.4; 200.0 µM
Binary call on solubility kinetic: criterion met from 0.02 mg/mL upward, criterion not met beneath that.

Does the compound COc1ccccc1CNC(=O)COC(=O)Cc1ccc(Br)cc1 have recorded solubility kinetic that is 0.02 mg/mL or more? criterion not met

Here is the next compound: CCOC(=O)C(=CNc1ccc2c(c1)CCN2C(C)=O)C(=O)OCC criterion not met

Here is the next compound: Cn1c2ccc(F)cc2c2ncn(CC3CCCO3)c(=O)c21 (stereo not given) criterion not met

Here is the next compound: Cn1c(N)c(C(=O)COC(=O)c2ccc(F)cc2Cl)c(=O)n(C)c1=O criterion not met

Here is the next compound: Cc1ccc2nc(NC(=O)COC(=O)c3cccnc3)sc2c1 criterion not met

Here is the next compound: CC(CCc1ccccc1)NC(=O)CN1CCc2ccccc2C1 (stereo not given) criterion met

Here is the next compound: CSc1cccc(NC(=O)c2[nH]c(C)c(C(C)=O)c2C)c1 criterion not met

Here is the next compound: CC1=C(C)CC(C(=O)NCc2ccccn2)C(C(=O)O)C1 (stereo not given) criterion met

Here is the next compound: COc1ccc(/C=N/S(=O)(=O)c2ccc(C)cc2)cc1 criterion met

Here is the next compound: O=C(NCCc1ccccc1)c1cnc2n(c1=O)CCS2 criterion met

Here is the next compound: CCn1c(=O)cc(N2CCN(C(=O)c3ccco3)CC2)[nH]c1=O criterion met

---

solubility kinetic for assorted molecules
measurement-setup: buffer; pH 7.4; 200.0 µM

molecule | solubility kinetic
CN(C)CCCNc1c2ccccc2nc2ccccc12 | > 41.9 µg/mL
CC(=O)Nc1nnc(SCC(=O)NC2CCCC2)s1 | > 45.1 µg/mL
CC(OC(=O)c1ccc2ncsc2c1)C(=O)N1CCCC1 (stereo not given) | 39.4 µg/mL
CCOc1ccc(NC(=O)C(CC(=O)O)Cc2ccc(C)cc2)cc1 (stereo not given) | > 51.2 µg/mL
O=C(CCN1C(=O)C2CC=CCC2C1=O)Nc1ccccc1Cl (stereo not given) | > 49.9 µg/mL
O=C(Nc1ccc(F)cc1)C(=O)C1C(=O)Nc2ccccc21 (stereo not given) | > 44.7 µg/mL

# get_value(readout='solubility kinetic', item= Cc1cccc(Nc2nc(-c3sc(C)nc3C)cs2)c1 ) 0.2 µg/mL

Here is the next molecule: Cc1cc2cc(OCc3ccccc3)ccc2n1C < 0.5 µg/mL

Here is the next molecule: S=C(NCc1ccc(Cl)cc1)N1CCN(c2ccccn2)CC1 < 0.2 µg/mL
